Entries with their measured log10 of IC50, system Voltage-gated inwardly rectifying potassium channel KCNH2 (Homo sapiens, UniProt Q12809):
# log10 transformed; quantity=IC50; unit=µM

Example entries and their recorded answers appear below.
molecule: Nc1nccn1CC(O)c1ccc(Cl)cc1F (racemic)
log10 of IC50: 1.78
--
molecule: Nc1nc(-c2ccc(F)cc2)cn1CC(O)c1ccc(C(F)(F)F)cc1Cl (racemic)
log10 of IC50: 1.40
--
molecule: Nc1nc(C2CC2)cn1CC(O)c1ccc(Cl)cc1Cl (racemic)
log10 of IC50: 0.65
--
molecule: CN1CCN(c2ccc3nc(N)n(CC(O)c4ccc(C(F)(F)F)cc4Cl)c3n2)CC1 (racemic)
log10 of IC50: 1.09
--
molecule: Nc1nc2ccc(NCC(F)(F)F)nc2n1CC(O)c1ccc(Cl)cc1Cl (racemic)
log10 of IC50: 0.54

Okay, next one:
State the measured log10 of IC50 (Voltage-gated inwardly rectifying potassium channel KCNH2 (Homo sapiens, UniProt Q12809)) of Nc1nc2ccc(OC3CCOC3)nc2n1CC(O)c1ccc(C(F)(F)F)cc1Cl (racemic) 1.22

Recorded values, source ChEMBL document CHEMBL3286148.
